- Target Under Test: ligand binding domain of human RORγ (Homo sapiens, UniProt P51449)
- Construct: host or cells: HEK293t
- Assay Explanation: RORγ Reporter Assay (Gal4)
- Type: cell-based
- Condition: HEK-293T, 1 μM test compound, HEK293t RORγ reporter cells, 24 hour; read-out: Gal4 activity range @ 1 μM (% inhibition)
In this section, each of the compounds is paired with its reported inhibition at 1 µM.

Please review the entries below; each comes with its answer.
Input line: Given the entry CCCn1nc(C)cc1CN(C)c1ncnc(NCC2CCN(S(=O)(=O)C(F)F)CC2)c1F [Example A149] , report its measured inhibition at 1 µM.
Output line: > 20%

Input line: Same question for NC(=O)Cc1ccc(CNc2ncnc(N(Cc3ccccc3)C3CC3)c2F)cc1 [Example A42] please.
Output line: > 50%

Next:
Input line: Quick check: inhibition at 1 µM of Fc1c(NC[C@H]2CC[C@H](Cc3nnn[nH]3)CC2)ncnc1N(Cc1ccc(C(F)(F)F)cc1)C1CC1 [Example A61] ?
Output line: > 80%

Input line: And the next one, NC(=O)Cc1ccc(CNc2ncnc(N(C3CC3)C(c3ccc(C(F)(F)F)cc3)C3CCC3)c2F)cc1 (stereo not shown) [Example A17] ?
Output line: > 50%

---

- Target Under Test: ligand binding domain of human RORγ (Homo sapiens)
- Construct: host or cells: HEK293t
- Assay Explanation: RORγ Reporter Assay (Gal4)
- Format: cell-based
- Condition: RORγ Reporter Assay (Gal4), HEK293t reporter cells, compound at 0.1 μM; values are activity range bounds
Listing of entries alongside the reported Gal4 activity range @ 0.1 μM (% inhibition).

// below: answered molecules
Input line: So what's the measured Gal4 activity range @ 0.1 μM (% inhibition) for this one? Fc1c(NC[C@H]2CC[C@H](Cc3nnn[nH]3)CC2)ncnc1N(Cc1ccc(C(F)(F)F)cc1)C1CC1
Output line: >20 % inhibition

Input line: Ok, now CN(Cc1ccc(-n2cccn2)cc1)c1ncnc(NCc2ccc(CC(N)=O)cc2)c1F
Output line: >0 % inhibition

Input line: Let us now turn to NC(=O)Cc1ccc(CNc2ncnc(N(Cc3c(F)cccc3Cl)C3CC3)c2F)cc1
Output line: >20 % inhibition

Input line: Let us now turn to CCCn1nc(C)cc1CN(C)c1ncnc(NCc2ccc(CC(N)=O)cc2)c1F [Example A124]
Output line: >0 % inhibition

Input line: Entry to check: Cc1ccc(CNc2ncnc(N(Cc3ccc(C(F)(F)F)cc3)C3CC3)c2F)cn1
Output line: >20 % inhibition

Continuing:
Input line: Consider the molecule Cc1nc(C)c(C(C)N(C)c2ncnc(NCc3ccc(CC(N)=O)cc3)c2F)s1 (stereo not shown) and give its measured Gal4 activity range @ 0.1 μM (% inhibition).
Output line: >0 % inhibition

Input line: Another molecule: CN(Cc1cccc(-n2cccn2)c1)c1ncnc(NC[C@H]2CC[C@H](NS(=O)(=O)C(F)(F)F)CC2)c1F
Output line: >0 % inhibition

Input line: For O=S(=O)(Nc1ccc(CNc2ncnc(N(Cc3ccc(C(F)(F)F)cc3)C3CC3)c2F)cc1)C(F)F then?
Output line: >80 % inhibition

Input line: What about this molecule? CS(=O)(=O)N1CCC2(CC2Nc2ncnc(N(Cc3ccc(C(F)(F)F)cc3)C3CC3)c2F)C1 (stereo not shown)
Output line: >20 % inhibition

Input line: // repeat for NC(=O)Cc1ccc(CNc2ncnc(N(Cc3ccccc3)C3CC3)c2F)cc1 and report
Output line: >20 % inhibition

Input line: Okay, and O=C(O)C[C@@H](CCc1ccccc1)Nc1ncnc(N(Cc2ccc(C(F)(F)F)cc2)C2CC2)c1F ?
Output line: >0 % inhibition

Input line: # repeat for NC(=O)Cc1ccc(CNc2ncnc(N(Cc3cccc(C(F)(F)F)n3)C3CC3)c2F)cc1
Output line: >0 % inhibition

Input line: And then CC(C)c1ccc(CN(c2ncnc(NCc3ccc(CC(N)=O)cc3)c2F)C2CC2)cn1 , what is it?
Output line: >50 % inhibition

Input line: Now the molecule CC1(c2ccc(CNc3ncnc(N(Cc4ccc(C(F)(F)F)cc4)C4CC4)c3F)cc2)NC(=O)NC1=O (stereo not shown)
Output line: >20 % inhibition

Input line: Now the same for CS(=O)(=O)N1CCC2(CC1)CC2Nc1ncnc(N(Cc2ccc(C(F)(F)F)cc2)C2CC2)c1F (stereo not shown)
Output line: >80 % inhibition

Input line: // query: Fc1c(NCC2CCOCC2)ncnc1N(Cc1ccc(C(F)(F)F)cc1)C1CC1
Output line: >20 % inhibition

---

The following molecules are listed with their measured Gal4 activity range @ 0.1 μM (% inhibition) values.
- Target Under Test: ligand binding domain of human RORγ (Homo sapiens)
- Construct: host or cells: HEK293t
- Assay Explanation: RORγ Reporter Assay (Gal4)
- Type: cell-based
- Condition: RORγ Reporter Assay (Gal4), HEK293t reporter cells, compound at 0.1 μM; values are activity range bounds

Completed entries (count: 6):
Input line: Can you look up Gal4 activity range @ 0.1 μM (% inhibition) on ligand binding domain of human RORγ (Homo sapiens) for CS(=O)(=O)N1CC2CCC(Nc3ncnc(N(Cc4ccc(C(F)(F)F)cc4)C4CC4)c3F)C2C1 (stereo not shown) ?
Output line: >50 % inhibition

Input line: Again, but for NC(=O)Cc1ccc(CNc2ncnc(N(C3CC3)C(c3ccc(C(F)(F)F)cc3)C3CC3)c2F)cc1 (stereo not shown)
Output line: >20 % inhibition

Input line: Field entry: CN(c1ncnc(NCc2ccc(CC(N)=O)cc2)c1F)C1(c2ccc(C(F)(F)F)cc2)CC1
Output line: >50 % inhibition

Input line: And then NC(=O)Cc1ccc(CNc2ncnc(N(C3CC3)C(c3ccc(C(F)(F)F)cc3)C3CCC3)c2F)cc1 (stereo not shown) , what is it?
Output line: >20 % inhibition

Input line: How about this molecule: CC(c1ccc(C(F)(F)F)cc1)N(c1ncnc(NCC2CCN(S(C)(=O)=O)CC2)c1F)C1CC1 (stereo not shown)
Output line: >80 % inhibition

Input line: How about NC(=O)Cc1ccc(CNc2ncnc(N(Cc3ccc(C(F)(F)F)cn3)C3CC3)c2F)cc1 ?
Output line: >50 % inhibition

Continue with the next molecule.
Input line: Under ligand binding domain of human RORγ (Homo sapiens): Gal4 activity range @ 0.1 μM (% inhibition) value of CC(c1ccc(C(F)(F)F)cn1)N(c1ncnc(NCc2ccc(CC(N)=O)cc2)c1F)C1CC1 (stereo not shown) ?
Output line: >50 % inhibition

---

In this section, each of the molecules is paired with its reported pIC50.
- Target Under Test: human RORγt (Ligand Binding Domain) (Homo sapiens, UniProt P51449)
pIC50: −log10 of the molar value.

For orientation, consider the following solved cases.
Input line: Request the reported pIC50 associated with COC(=O)CC(c1ccc(C(F)(F)F)cc1)N(c1ncnc(NCc2ccc(CC(N)=O)cc2)c1F)C1CC1 (stereo not drawn)
Output line: > 6.30

Input line: Also, O=S(=O)(Nc1ccc(CNc2ncnc(N(Cc3ccc(C(F)(F)F)cc3)C3CC3)c2F)cc1)C(F)(F)F please.
Output line: > 6.30

Please turn your attention to the following entry.
Input line: Entry CC1(c2ccc(CNc3ncnc(N(Cc4ccc(C(F)(F)F)cc4)C4CC4)c3F)cc2)NC(=O)NC1=O (stereo not drawn) has what pIC50?
Output line: > 6.00

---

// reported IC50 per item
- Target Under Test: human RORγt (Ligand Binding Domain) (Homo sapiens, UniProt P51449)
- Sequence (P51449 269-508 limits assumed): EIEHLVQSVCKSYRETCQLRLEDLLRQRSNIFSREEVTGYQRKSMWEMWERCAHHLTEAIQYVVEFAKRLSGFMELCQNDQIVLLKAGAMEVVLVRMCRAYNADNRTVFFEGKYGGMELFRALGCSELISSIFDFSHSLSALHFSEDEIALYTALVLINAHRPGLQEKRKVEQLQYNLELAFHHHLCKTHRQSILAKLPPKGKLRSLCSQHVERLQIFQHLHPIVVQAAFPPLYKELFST

Input line: So what's the measured IC50 for this one? CN(Cc1cccc(-n2cccn2)c1)c1ncnc(NC[C@H]2CC[C@H](NS(=O)(=O)C(F)(F)F)CC2)c1F [Example A142]
Output line: < 0.5 µM

Input line: Check Fc1c(NCc2ccccc2)ncnc1N(Cc1ccc(C(F)(F)F)cc1)C1CC1 [Example A40] too.
Output line: < 1 µM

Input line: Now this one: NC(=O)Cc1ccc(CNc2ncnc(N(Cc3ccc(C(F)(F)F)cc3)C3CCC3)c2F)cc1 [Example A15]
Output line: < 0.5 µM

Input line: Follow-up entry: CN(C)CCCNC(=O)CC1(CNc2ncnc(N(Cc3ccc(C(F)(F)F)cc3)C3CC3)c2F)CCOCC1 [Example A153]
Output line: < 10 µM

Others:
Input line: # query: IC50 of entry CC(C)(C)OC(=O)NCC(c1ccc(C(F)(F)F)cc1)N(c1ncnc(NCc2ccc(CC(N)=O)cc2)c1F)C1CC1 (stereo not drawn) [Example A47]
Output line: < 10 µM

Input line: Now consider CS(=O)(=O)Cc1ccc(CNc2ncnc(N(Cc3ccc(C(F)(F)F)cc3)C3CC3)c2F)cc1 [Example A37] .
Output line: < 0.5 µM
